Assay type: physicochemical
Conditions: buffer, pH 7.5
Experimental: A protein melting analysis was also conducted. For the protein melting determinations, purified enzyme was added to 96-well microtiter plates in standard storage buffer (30 mM Tris pH7.5, 150 mM NaCl) with or without 50 uM Fe2+ and 1.0 mM aKG. […]
measured.metric: T1/2, temperature where 50% of the protein was unfolded, Buffer

molecule	value.measured
MON-HT3: engineered oxygenase protein, amino acid sequence SEQ ID NO:22 (protein) MHAALSPLSQRFERIAVQPLTGVLGAEITGVDLREPLDDSTWNEILDAFHTYQVIYFPGQAITNEQHIAFSRRFGPVDPVPLLKSIEGYPEVQMIRREANESGRVIGDDWHTDSTFLDAPPAAVVMYAKEVPPYGGDTLFASMYTAWETLSPTMQATIEGLNVVHSATRVFGSLYQAQNRRFSNTSVKVMDVDAGDRETVHPLVVTHPETGRKGLYVNQVYCQRIEGMSEKESEPLLSFLFAHATKPEFTCRVRWQEGQVLVWDNLCTQHFAVPDYAGKFRYLTRTTVGGVRPAR	46 °C

Give its T1/2, temperature where 50% of the protein was unfolded, Buffer value. Item: MON-HT1: engineered oxygenase protein, amino acid sequence SEQ ID NO:14 (protein) MHAALTPLTNKYRFIDVQPLTGVLGAEITGVDLREPLDDSTWNEILDAFHTYQVIYFPGQAITNEQHIAFSRRFGPVDPVPILKSIEGYPEVQMIRREANESSRFIGDDWHTDSTFLDAPPAAVVMRAIEVPEYGGDTGFLSMYSAWETLSPTMQATIEGLNVVHSATKVFGSLYQATNWRFSNTSVKVMDVDAGDRETVHPLVVTHPVTGRRALYCNQVYCQKIQGMTDAESKSLLQFLYEHATKFDFTCRVRWKKDQVLVWDNLCTMHRAVPDYAGKFRYLTRTTVAGDKPSR
56 °C
